# targetSystem: CYP2B6 (Homo sapiens, UniProt P20813)
# Sequence (P20813 whole entry): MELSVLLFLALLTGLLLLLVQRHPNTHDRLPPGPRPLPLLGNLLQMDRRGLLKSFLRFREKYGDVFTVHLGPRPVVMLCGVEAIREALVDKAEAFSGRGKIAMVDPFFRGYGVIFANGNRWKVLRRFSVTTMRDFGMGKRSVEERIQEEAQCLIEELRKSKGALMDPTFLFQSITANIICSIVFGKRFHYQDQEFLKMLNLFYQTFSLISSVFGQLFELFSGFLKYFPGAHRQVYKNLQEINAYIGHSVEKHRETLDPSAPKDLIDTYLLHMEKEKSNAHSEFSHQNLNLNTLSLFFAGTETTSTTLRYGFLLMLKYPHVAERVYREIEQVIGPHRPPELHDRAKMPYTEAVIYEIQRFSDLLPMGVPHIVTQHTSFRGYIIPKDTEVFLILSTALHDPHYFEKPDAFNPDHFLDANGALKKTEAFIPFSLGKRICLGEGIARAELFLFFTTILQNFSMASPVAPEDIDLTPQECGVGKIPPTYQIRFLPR
# assayText: biochemical
# Set-up: CYP off-target inhibition panel
# protocolConditions: read-out: compound 2
measurementName: IC50

I am curious: what IC50 value has been reported for O=C(c1cccnc1-c1ccncn1)N1CCC(O)(Cc2ccc(F)cc2)CC1 ? > 50 µM

====

# targetSystem: CYP2C9 (Homo sapiens, UniProt P11712)
# Sequence (P11712 whole entry): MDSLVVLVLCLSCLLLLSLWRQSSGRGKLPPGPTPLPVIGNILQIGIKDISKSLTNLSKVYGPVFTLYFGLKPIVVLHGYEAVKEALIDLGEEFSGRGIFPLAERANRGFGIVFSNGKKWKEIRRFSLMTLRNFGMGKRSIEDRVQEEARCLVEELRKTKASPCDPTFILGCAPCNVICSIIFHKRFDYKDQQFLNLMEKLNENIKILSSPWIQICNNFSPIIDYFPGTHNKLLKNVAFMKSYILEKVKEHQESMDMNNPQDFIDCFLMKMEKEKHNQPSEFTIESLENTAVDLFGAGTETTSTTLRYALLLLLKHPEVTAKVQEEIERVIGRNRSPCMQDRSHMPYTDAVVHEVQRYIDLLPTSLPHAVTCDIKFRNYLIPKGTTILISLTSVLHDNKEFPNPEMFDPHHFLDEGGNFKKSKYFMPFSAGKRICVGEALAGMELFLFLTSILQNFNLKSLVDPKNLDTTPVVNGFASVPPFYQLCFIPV
# assayText: biochemical
# Parameters: CYP off-target inhibition panel
# protocolConditions: read-out: compound 2
measurementName: IC50

I am curious: what IC50 value has been reported for O=C(c1cccnc1-c1ccncn1)N1CCC(O)(Cc2ccc(F)cc2)CC1 ? > 50 µM

Where these numbers come from: paper PMC7658267
